This collection of values is drawn from patent US12378186B2.

Target sequence: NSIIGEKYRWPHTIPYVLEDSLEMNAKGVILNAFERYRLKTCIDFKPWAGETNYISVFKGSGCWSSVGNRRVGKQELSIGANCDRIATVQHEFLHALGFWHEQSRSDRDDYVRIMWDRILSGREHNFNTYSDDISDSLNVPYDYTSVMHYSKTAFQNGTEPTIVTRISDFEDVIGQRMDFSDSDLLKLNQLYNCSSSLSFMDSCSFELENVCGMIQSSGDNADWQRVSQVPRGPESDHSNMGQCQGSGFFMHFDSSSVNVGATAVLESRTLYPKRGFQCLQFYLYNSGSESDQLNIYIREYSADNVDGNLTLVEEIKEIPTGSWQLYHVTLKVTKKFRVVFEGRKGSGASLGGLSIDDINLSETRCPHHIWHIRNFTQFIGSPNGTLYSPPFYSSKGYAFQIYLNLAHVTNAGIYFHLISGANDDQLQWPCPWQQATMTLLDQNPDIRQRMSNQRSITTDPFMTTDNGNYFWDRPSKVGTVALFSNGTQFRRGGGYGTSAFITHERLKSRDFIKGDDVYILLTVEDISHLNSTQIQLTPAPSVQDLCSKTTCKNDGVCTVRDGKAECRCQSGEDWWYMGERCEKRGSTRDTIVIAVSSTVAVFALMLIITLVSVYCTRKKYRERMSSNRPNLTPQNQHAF
Could you mark each record satisfied if its Ki falls strictly under 600 nM, and not satisfied if it equals or exceeds it?

>  <Molecule>
O=C(O)CC[C@H](NCc1cccc(C(=O)O)c1)C(=O)NO [Example 39]

>  <Category label>
satisfied

$$$$
>  <Molecule>
O=C(CN(Cc1ccc(F)cc1)Cc1cccc(C(=O)O)c1)NO [Example 21]

>  <Category label>
not satisfied

$$$$
>  <Molecule>
O=C(O)C[C@H](NCc1cccc(C(=O)O)c1)C(=O)NO [Example 45]

>  <Category label>
not satisfied

$$$$
>  <Molecule>
N#Cc1ccc(CN(CC(=O)NO)Cc2cccc(C(=O)O)c2)cc1 [Example 19]

>  <Category label>
satisfied

$$$$
>  <Molecule>
O=C(O)c1cccc(CN[C@H](Cc2ccccc2)C(=O)NO)c1 [Example 35]

>  <Category label>
not satisfied

$$$$
>  <Molecule>
COc1ccc(CN(CCC(=O)NO)Cc2cccc(C(=O)O)c2)cc1 [Example 31]

>  <Category label>
satisfied

$$$$

Q. Hi there! Is Ki for O=C(CN(Cc1ccc2c(c1)OCO2)Cc1ccc2c(c1)OCO2)NO [Example 4] below 600 nM, do you know?
A. not satisfied

* * *

# System tested: UniProtKB Q16819
# Protocol summary: biochemical
# Assay type: biochemical
# Assay setup: average Ki; 4 substrate concentrations (5-40 μM), 30° C., 40 mM HEPES pH 7.4; read-out: Meprin Alpha Ki
Listing of entries alongside the reported pKi.
In plain terms, pKi is the concentration in mol/L turned into minus its base-10 logarithm.

>  <Compound>
O=C(CN(Cc1ccc(Cl)cc1)Cc1cccc(C(=O)O)c1)NO [Example 20]

>  <Assay endpoint>
pKi

>  <Quantitative readout>
6.10

$$$$
>  <Compound>
N#Cc1ccc(CN(CCC(=O)NO)Cc2ccc(C#N)cc2)cc1 [Example 57]

>  <Assay endpoint>
pKi

>  <Quantitative readout>
5.92

$$$$
>  <Compound>
O=C(CCN(Cc1ccc2c(c1)OCCO2)Cc1ccc2c(c1)OCCO2)NO [Example 69]

>  <Assay endpoint>
pKi

>  <Quantitative readout>
6.93

$$$$
>  <Compound>
COc1ccc(CN(CC(=O)NO)Cc2ccc(F)c(O)c2F)cc1 [Example 53]

>  <Assay endpoint>
pKi

>  <Quantitative readout>
6.48

$$$$
>  <Compound>
CCOC(=O)c1cccc(CN(CC(=O)NO)Cc2cccc(C(=O)O)c2)c1 [Example 59]

>  <Assay endpoint>
pKi

>  <Quantitative readout>
5.83

$$$$

Q. What does the data say about its pKi? Entry: O=C(O)CC[C@H](NCc1cccc(C(=O)O)c1)C(=O)NO [Example 39]
A. 5.60

Q. What does the data say about its pKi? Entry: COc1ccc(CN(CC(=O)NO)Cc2cccc(C(=O)O)c2)cc1 [Example 6]
A. 5.92

Q. What does the data say about its pKi? Entry: COc1ccc(CN(CCCC(=O)NO)Cc2cccc(C(=O)O)c2)cc1 [Example 38]
A. 6.02

Q. What does the data say about its pKi? Entry: COc1ccc(CN(CC(=O)NO)Cc2cccc(C(=O)O)c2)cc1F [Example 10]
A. 5.96

Q. What does the data say about its pKi? Entry: COc1ccc(CN(CCC(=O)NO)Cc2cccc(C(=O)O)c2)cc1 [Example 31]
A. 7.06

Q. What does the data say about its pKi? Entry: COc1cc(CN(CC(=O)NO)Cc2cc(OC)c3c(c2)OCO3)cc2c1OCO2 [Example 68]
A. 6.79

Q. What does the data say about its pKi? Entry: COC(=O)c1cccc(CN(CC(=O)NO)Cc2cccc(C(N)=O)c2)c1 [Example 42]
A. 5.92

Q. What does the data say about its pKi? Entry: O=C(CN(Cc1cccc(C(=O)O)c1)Cc1ccc2c(c1)OCO2)NO [Example 22]
A. 6.22

Q. What does the data say about its pKi? Entry: COC(=O)c1cccc(CN(CC(=O)NO)Cc2cccc(C(=O)O)c2)c1 [Example 43]
A. 5.76

Q. What does the data say about its pKi? Entry: N#Cc1cccc(CN(CCC(=O)NO)Cc2cccc(C#N)c2)c1 [Example 70]
A. 6.16

Q. What does the data say about its pKi? Entry: N#Cc1cccc(CN(CC(=O)NO)Cc2cccc(C#N)c2)c1 [Example 40]
A. 6.28

Q. What does the data say about its pKi? Entry: N#Cc1ccc(CN(CC(=O)NO)Cc2cccc(C(=O)O)c2)cc1 [Example 19]
A. 5.71

Q. What does the data say about its pKi? Entry: O=C(CN(Cc1ccc(Cl)c(O)c1F)Cc1ccc(Cl)c(O)c1F)NO [Example 52]
A. 6.98

Q. What does the data say about its pKi? Entry: O=C(CN(Cc1cccnc1)Cc1cccnc1)NO [Example 73]
A. 6.20

* * *

# System tested: hMeprin α (Homo sapiens)
# Sequence (Q16819 66-746): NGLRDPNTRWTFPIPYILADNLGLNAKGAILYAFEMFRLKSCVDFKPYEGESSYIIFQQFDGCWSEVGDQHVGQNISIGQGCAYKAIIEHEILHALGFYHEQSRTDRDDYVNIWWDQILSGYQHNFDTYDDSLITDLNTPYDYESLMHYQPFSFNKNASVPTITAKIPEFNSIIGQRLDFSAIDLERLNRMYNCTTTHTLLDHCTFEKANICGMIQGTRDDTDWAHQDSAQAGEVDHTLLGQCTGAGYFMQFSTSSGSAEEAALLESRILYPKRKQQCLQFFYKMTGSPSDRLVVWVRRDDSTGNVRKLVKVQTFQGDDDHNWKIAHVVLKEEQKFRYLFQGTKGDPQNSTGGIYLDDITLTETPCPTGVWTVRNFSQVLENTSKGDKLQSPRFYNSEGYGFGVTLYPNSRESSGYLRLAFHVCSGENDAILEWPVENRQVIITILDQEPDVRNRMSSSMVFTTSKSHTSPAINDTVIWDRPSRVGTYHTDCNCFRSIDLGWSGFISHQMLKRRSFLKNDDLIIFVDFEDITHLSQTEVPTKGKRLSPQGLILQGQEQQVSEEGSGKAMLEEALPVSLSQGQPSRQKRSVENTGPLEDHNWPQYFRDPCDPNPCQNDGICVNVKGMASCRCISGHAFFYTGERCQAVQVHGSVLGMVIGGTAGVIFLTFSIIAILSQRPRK
# Protocol summary: biochemical
# Assay type: biochemical
# Assay setup: average Ki; 4 substrate concentrations (5-40 μM), 30° C., 40 mM HEPES pH 7.4; read-out: Meprin Alpha Ki
Assay endpoint: pKi
In plain terms, pKi is the concentration in mol/L turned into minus its base-10 logarithm.

Q. What does the data say about its pKi? Entry: COc1cc(F)c(CN(CC(=O)NO)Cc2cccc(C(=O)O)c2)c(F)c1 [Example 11]
A. 5.90

Q. What does the data say about its pKi? Entry: O=C(CN(Cc1ccc2c(c1)OCCO2)Cc1ccc2c(c1)OCCO2)NO [Example 63]
A. 6.53

Q. What does the data say about its pKi? Entry: O=C(CN(Cc1cc(F)c(O)c(F)c1)Cc1cc(F)c(O)c(F)c1)NO [Example 48]
A. 6.58

Q. What does the data say about its pKi? Entry: COc1c(Cl)ccc(CN(CCC(=O)NO)Cc2ccc(Cl)c(OC)c2F)c1F [Example 65]
A. 6.80

* * *

# System tested: hMeprin β (Homo sapiens, UniProt Q16820)
# Protocol summary: Enzymatic assay, cleavage of internally quenched peptide substrate, hMeprin β
# Format: biochemical
# Assay setup: average IC50; 10 μM substrate, 30° C., 40 mM Tris pH 8.0; read-out: Meprin Beta IC50
Listing of entries alongside the reported IC50.
Form field: result (number plus unit)

>  <Compound>
COc1c(F)ccc(CN(CC(=O)NO)Cc2ccc(F)c(OC)c2F)c1F [Example 58]

>  <IC50>
18200 nM

$$$$
>  <Compound>
COc1ccc(CN(CCCC(=O)NO)Cc2cccc(C(=O)O)c2)cc1 [Example 38]

>  <IC50>
742 nM

$$$$
>  <Compound>
COc1ccc(CN(CCC(=O)NO)Cc2cccc(C(=O)O)c2)cc1 [Example 31]

>  <IC50>
643 nM

$$$$
>  <Compound>
NC(=O)c1cccc(CN(CC(=O)NO)Cc2cccc(C(N)=O)c2)c1 [Example 41]

>  <IC50>
13100 nM

$$$$
>  <Compound>
O=C(CN(Cc1ccc(F)c(O)c1F)Cc1ccc(F)c(O)c1F)NO [Example 47]

>  <IC50>
23 nM

$$$$

Q. What does the data say about its IC50? Entry: O=C(O)CC[C@H](NCc1cccc(C(=O)O)c1)C(=O)NO [Example 39]
A. 654 nM

Q. What does the data say about its IC50? Entry: O=C(CN(Cc1cccc(O)c1F)Cc1cccc(O)c1F)NO [Example 51]
A. 2900 nM

Q. What does the data say about its IC50? Entry: O=C(CN(Cc1ccc(F)cc1)Cc1cccc(C(=O)O)c1)NO [Example 21]
A. 177 nM

Q. What does the data say about its IC50? Entry: CC(C)[C@H](NCc1cccc(C(=O)O)c1)C(=O)NO [Example 29]
A. 15800 nM

Q. What does the data say about its IC50? Entry: O=C(O)C[C@@H](NCc1cccc(C(=O)O)c1)C(=O)NO [Example 46]
A. 548 nM
